# Assayed Target: Butyrophilin subfamily 3 member A1 (Homo sapiens)
# Sequence (O00481 30-513 limits assumed): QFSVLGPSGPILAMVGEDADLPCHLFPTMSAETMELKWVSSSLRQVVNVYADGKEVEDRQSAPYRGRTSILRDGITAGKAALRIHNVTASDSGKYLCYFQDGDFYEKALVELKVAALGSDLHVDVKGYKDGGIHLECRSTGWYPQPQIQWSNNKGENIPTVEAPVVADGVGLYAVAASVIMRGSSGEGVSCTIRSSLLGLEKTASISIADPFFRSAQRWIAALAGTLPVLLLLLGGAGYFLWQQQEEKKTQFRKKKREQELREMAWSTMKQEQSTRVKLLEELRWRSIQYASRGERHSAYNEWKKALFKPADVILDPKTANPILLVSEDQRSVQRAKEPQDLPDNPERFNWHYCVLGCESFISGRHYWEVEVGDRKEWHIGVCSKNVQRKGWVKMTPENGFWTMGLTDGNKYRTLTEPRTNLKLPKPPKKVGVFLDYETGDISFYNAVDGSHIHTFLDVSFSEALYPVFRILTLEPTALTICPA
# Test: Binding affinity to butyrophilin 3A1 in human Vgamma9/Vdelta2 T-cells assessed as activation of Vgamma9/Vdelta2 T-cell-mediated lysis of human T24 cells preincubated for 4 hrs followed by compound washout measured after 18 hrs
Assay Metric: ED50

// worked examples, ED50 included
1) C/C(=C\COP(=O)(N[C@@H](C)C(=O)OC(C)(C)C)Oc1ccccc1)CO[Si](C)(C)C(C)(C)C (stereo partly drawn); > 100 µM
2) C/C(=C\COP(=O)(O)OP(=O)(O)O)CO; > 100 µM

Now turn to the next compound.
Query: What value of ED50 has been recorded for this entry: O=P(O)(O)C(O)(Cn1ccnc1)P(=O)(O)O [ZOLEDRONIC ACID]
Reply: > 100 µM
